System: T-47D cells
Assay: Caspase cascade activation / induction of apoptosis in T-47D cells (fluorogenic N-(Ac-DEVD)-N'-ethoxycarbonyl-R110 substrate)
Type: cell-based, human
Conditions: Homo sapiens, T47D; T-47D, 24 hr; read-out: T-47D (24 hr) EC50
Field: pEC50. Provide a value for each of the compounds that follow.
Reminder that pEC50 means the negative base-10 logarithm of the concentration expressed in mol/L.

INPUT: Which pEC50 is listed for COc1ccc(N(C)c2nc(C)nc3ccccc23)nn1 ?
OUTPUT: 6.41

INPUT: Please give the result for COc1ccc(N(C)c2nc(Cl)nc3ccccc23)cn1 too.
OUTPUT: 8.22

INPUT: Please give the result for COc1ccc(OC)c(Nc2nc(Cl)nc3ccccc23)c1 too.
OUTPUT: 6.50

INPUT: Please give the result for COc1ccc(N(C)c2nc(N(C)C)nc3ccccc23)cc1 too.
OUTPUT: 7.80

INPUT: Please give the result for CCOc1ccc(N(C)c2nc(C)nc3ccccc23)cc1 too.
OUTPUT: 8.30

INPUT: Please give the result for Cc1nc(N(C)c2ccc(C(=O)ON3C(=O)CCC3=O)cc2)c2ccccc2n1 too.
OUTPUT: 5.37

INPUT: Please give the result for COc1ccc(N(C)c2nc(C)nc3nccnc23)cc1 too.
OUTPUT: 7.57

INPUT: Please give the result for COc1ccc(N(C)c2nc(C)nc3cccc(OC)c23)cc1 too.
OUTPUT: 8.40

INPUT: Please give the result for COc1cc(OC)c(N(C)c2nc(C)nc3ccccc23)c(OC)c1 too.
OUTPUT: 6.25

These entries and their values trace back to patent US20130029942A1.
